- target or system: butyrylcholinesterase (BChE) (Equus caballus, UniProt P81908)
- Sequence (P81908 whole entry): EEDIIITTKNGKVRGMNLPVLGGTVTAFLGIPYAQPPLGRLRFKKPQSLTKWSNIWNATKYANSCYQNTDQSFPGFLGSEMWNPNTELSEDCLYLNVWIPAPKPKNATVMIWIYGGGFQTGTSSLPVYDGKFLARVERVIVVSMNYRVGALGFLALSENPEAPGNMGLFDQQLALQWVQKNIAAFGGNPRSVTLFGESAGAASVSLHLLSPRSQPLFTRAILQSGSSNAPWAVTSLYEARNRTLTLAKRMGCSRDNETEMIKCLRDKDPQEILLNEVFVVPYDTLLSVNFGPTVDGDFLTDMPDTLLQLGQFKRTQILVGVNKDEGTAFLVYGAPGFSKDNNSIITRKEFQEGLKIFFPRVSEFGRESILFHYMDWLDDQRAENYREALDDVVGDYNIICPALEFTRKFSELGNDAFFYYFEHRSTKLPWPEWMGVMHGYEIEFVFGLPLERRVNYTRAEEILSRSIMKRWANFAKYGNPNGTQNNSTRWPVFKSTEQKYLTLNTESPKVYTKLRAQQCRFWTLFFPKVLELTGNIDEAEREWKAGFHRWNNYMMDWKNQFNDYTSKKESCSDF
- assay: biochemical
- test context: Comp. Conc. 125 µg/mL; n = 3
Decision: inhibition of butyrylcholinesterase (% BChE activity) compared against 70%; not below it gives 1, below it gives -1.

QUERY: Assess whether reported inhibition of butyrylcholinesterase (% BChE activity) for O=C([O-])Cc1ccccc1Cl.O=C([O-])Cc1ccccc1Cl.O=C([O-])Cc1ccccc1Cl.O=C([O-])Cc1ccccc1Cl.Oc1ccncc1.Oc1ccncc1.[Cu+2].[Cu+2] [Complex 3, Cun(2-ClC6H4COO)4(4-OHPy)2] sits at 70% or higher.
RESULT: -1

QUERY: How about N#Cc1ccncc1.N#Cc1ccncc1.O=C([O-])Cc1cccc(Cl)c1.O=C([O-])Cc1cccc(Cl)c1.O=C([O-])Cc1cccc(Cl)c1.O=C([O-])Cc1cccc(Cl)c1.[Cu+2].[Cu+2] [Complex 5, Cu2(3-ClC6H4COO)4(4-CNPy)2] ?
RESULT: 1

QUERY: Next molecule: N#Cc1cccnc1.N#Cc1cccnc1.O=C([O-])Cc1cccc(Cl)c1.O=C([O-])Cc1cccc(Cl)c1.O=C([O-])Cc1cccc(Cl)c1.O=C([O-])Cc1cccc(Cl)c1.[Cu+2].[Cu+2] [Complex 4, Cu2(3-ClC6H4COO)4(3-CNPy)2]
RESULT: 1

QUERY: Request: O=C([O-])Cc1cccc(Cl)c1.O=C([O-])Cc1cccc(Cl)c1.O=C([O-])Cc1cccc(Cl)c1.O=C([O-])Cc1cccc(Cl)c1.Oc1ccncc1.Oc1ccncc1.[Cu+2].[Cu+2] [Complex 6, Cu2(3-ClC6H4COO)4(4-OHPy)2]
RESULT: -1

QUERY: Same thing, different molecule: N#Cc1ccncc1.N#Cc1ccncc1.O=C([O-])Cc1ccccc1Cl.O=C([O-])Cc1ccccc1Cl.O=C([O-])Cc1ccccc1Cl.O=C([O-])Cc1ccccc1Cl.[Cu+2].[Cu+2] [Complex 2, Cu2(2-ClC6H4COO)4(4-CNPy)2]
RESULT: -1

* * *

- target or system: UniProt:O42275
- Sequence (O42275 24-633): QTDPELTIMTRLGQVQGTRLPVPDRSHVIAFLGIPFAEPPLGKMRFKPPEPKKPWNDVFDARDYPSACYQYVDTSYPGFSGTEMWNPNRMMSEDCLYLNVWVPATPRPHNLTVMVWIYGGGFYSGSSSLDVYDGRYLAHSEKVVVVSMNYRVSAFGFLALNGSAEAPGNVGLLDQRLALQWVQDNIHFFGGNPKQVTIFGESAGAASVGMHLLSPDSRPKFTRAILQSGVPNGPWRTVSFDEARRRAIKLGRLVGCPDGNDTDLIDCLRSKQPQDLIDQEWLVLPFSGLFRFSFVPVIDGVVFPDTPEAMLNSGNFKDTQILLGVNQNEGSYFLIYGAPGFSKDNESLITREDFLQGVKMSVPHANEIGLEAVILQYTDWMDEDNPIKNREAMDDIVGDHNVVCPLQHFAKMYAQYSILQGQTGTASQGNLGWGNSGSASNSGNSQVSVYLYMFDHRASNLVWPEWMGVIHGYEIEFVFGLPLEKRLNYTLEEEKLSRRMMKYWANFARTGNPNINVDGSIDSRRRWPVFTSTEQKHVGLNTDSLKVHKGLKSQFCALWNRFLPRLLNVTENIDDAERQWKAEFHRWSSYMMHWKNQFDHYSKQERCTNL
- assay: biochemical
- Assay type: biochemical
- test context: Comp. Conc. 62.5 µg/mL; n = 3
Exercise: for every item that follows, state its recorded Inhibition of Acetylcholinesterase (%AChE Activity).
State just the number; it will be interpreted in %.

QUERY: Which measured Inhibition of Acetylcholinesterase (%AChE Activity) value corresponds to O=C([O-])Cc1cccc(Cl)c1.O=C([O-])Cc1cccc(Cl)c1.O=C([O-])Cc1cccc(Cl)c1.O=C([O-])Cc1cccc(Cl)c1.Oc1ccncc1.Oc1ccncc1.[Cu+2].[Cu+2] ?
RESULT: 58.74

QUERY: Follow-up item: N#Cc1cccnc1.N#Cc1cccnc1.O=C([O-])Cc1ccccc1Cl.O=C([O-])Cc1ccccc1Cl.O=C([O-])Cc1ccccc1Cl.O=C([O-])Cc1ccccc1Cl.[Cu+2].[Cu+2]
RESULT: 55.67

QUERY: What about O=C([O-])Cc1ccccc1Cl.O=C([O-])Cc1ccccc1Cl.O=C([O-])Cc1ccccc1Cl.O=C([O-])Cc1ccccc1Cl.Oc1ccncc1.Oc1ccncc1.[Cu+2].[Cu+2] ?
RESULT: 62.98

QUERY: And what about the molecule N#Cc1cccnc1.N#Cc1cccnc1.O=C([O-])Cc1cccc(Cl)c1.O=C([O-])Cc1cccc(Cl)c1.O=C([O-])Cc1cccc(Cl)c1.O=C([O-])Cc1cccc(Cl)c1.[Cu+2].[Cu+2] ?
RESULT: 67.90

QUERY: Similarly, N#Cc1ccncc1.N#Cc1ccncc1.O=C([O-])Cc1cccc(Cl)c1.O=C([O-])Cc1cccc(Cl)c1.O=C([O-])Cc1cccc(Cl)c1.O=C([O-])Cc1cccc(Cl)c1.[Cu+2].[Cu+2] ?
RESULT: 69.91

QUERY: Continue with N#Cc1ccncc1.N#Cc1ccncc1.O=C([O-])Cc1ccccc1Cl.O=C([O-])Cc1ccccc1Cl.O=C([O-])Cc1ccccc1Cl.O=C([O-])Cc1ccccc1Cl.[Cu+2].[Cu+2]
RESULT: 71.73
